Consider the following compounds; for each one, report its Fold Induction, 13B3 Assay, 3.3 uM.
tgt: GAL4 DBD-CfEcR(DEF)/VP16AD-MmRXRE (Choristoneura fumiferana)
assay method text: 13B3 Assay (CHO stable cell line, luciferase reporter)
condition: 3.3 uM ligand; RLU ligand treated / RLU DMSO treated cells; average of two wells
Reply with the value as a number alone.

Ask | Recorded Fold Induction, 13B3 Assay, 3.3 uM for Cc1cc(C)cc(C(=O)N(NC(=O)c2ccc3c(c2Cl)COCO3)C(C)(C)C)c1 , please?
Reply | 908

Ask | Recorded Fold Induction, 13B3 Assay, 3.3 uM for CCc1c(OC)cccc1C(=O)NN(C(=O)c1cc(F)cc(C(F)(F)F)c1)C(C)(C)C , please?
Reply | 542

Ask | Recorded Fold Induction, 13B3 Assay, 3.3 uM for CCc1c(C(=O)NN(C(=O)c2cc(OC)c(C)c(OC)c2)C(C)(C)C)ccc2c1OCCO2 , please?
Reply | 987

Ask | Recorded Fold Induction, 13B3 Assay, 3.3 uM for CCc1c(C(=O)NN(C(=O)c2cc(C)cc(C)c2)C(C)(C)C)ccc2c1OC(C)O2 (stereo not shown) , please?
Reply | 1556

Ask | Recorded Fold Induction, 13B3 Assay, 3.3 uM for Cc1c(C(=O)NN(C(=O)c2cc(F)c(Cl)cc2Cl)C(C)(C)C)ccc2c1CCCO2 , please?
Reply | 20

Ask | Recorded Fold Induction, 13B3 Assay, 3.3 uM for CCc1ccc(C(=O)NN(C(=O)c2cc(C)cc(Cl)c2)C(C)(C)C)cc1 , please?
Reply | 987

Ask | Recorded Fold Induction, 13B3 Assay, 3.3 uM for CCc1c(OC)cccc1C(=O)NN(C(=O)c1cccc(Br)c1)C(C)(C)C , please?
Reply | 4119

Ask | Recorded Fold Induction, 13B3 Assay, 3.3 uM for Cc1c(C(=O)NN(C(=O)c2cc(F)c(F)c(F)c2F)C(C)(C)C)ccc2c1CCCO2 , please?
Reply | 1644

Ask | Recorded Fold Induction, 13B3 Assay, 3.3 uM for CCc1ccc(C(=O)NN(C(=O)c2cc(C)c(Cl)c(C)c2)C(C)(C)C)cc1 , please?
Reply | 3279

Ask | Recorded Fold Induction, 13B3 Assay, 3.3 uM for Cc1c(C(=O)NN(C(=O)c2cccc(F)c2)C(C)(C)C)ccc2c1CCCO2 , please?
Reply | 1950

# credit: patent US9102648B1
